Test Description: Pharmacokinetic evaluation in beagles after intragastric administration
Format: in vivo
Condition Label: both sexes, beagle, dog, plasma, po, 2 mg/kg, read-out: Apparent volume of distribution Vz/F
Value Kind: Vd/F (L/kg)
# output: bare number, implied unit L/kg

Could you share which Vd/F value was measured for Nc1nc2cc(-c3ccc4c(c3)C(=O)N(Cc3cc(OC(F)(F)F)ccc3F)CCC4)ccn2n1 [Example 2] ?
0.49

###

Test Description: Pharmacokinetic evaluation in beagles after intragastric administration
Assay type: in vivo
Condition Label: both sexes, beagle, dog, plasma, po, 2 mg/kg, read-out: Clearance rate CL/F
Value Kind: CL/F (mL/min/kg)
# output: bare number, implied unit mL/min/kg

Could you share which CL/F value was measured for Nc1nc2cc(-c3ccc4c(c3)C(=O)N(Cc3cc(OC(F)(F)F)ccc3F)CCC4)ccn2n1 [Example 2] ?
0.48
